Assay: ASC/caspase-1 reporter retest in S. cerevisiae at one dose, specificity check for NALP1 project (AID 488857)
Settings: S. cerevisiae ASC/Caspase-1, beta-galactosidase luminescence, 24 h; at 10 µM; hits give high values
The whole screen tested about 1,400 compounds, of which about 560 (40%) were called active. So high a share suggests a set chosen from earlier hits. This is one part of the list.
assayMetric: inhibition (%)
Give just the number in %; leave the unit off.

inhibition reported for this compound CNC(CC(=O)c1ccc([N+](=O)[O-])cc1)C(Cl)(Cl)Cl (stereo unspecified) : 69.4

Item: O=C(Oc1cccc2cccnc12)c1ccc(N2C(=O)C3C4CCC(C4)C3C2=O)cc1 (stereo unspecified) | inhibition: 31.9

The reported inhibition of the compound Cc1ccn2cc(-c3ccc(NC(=O)c4ccco4)cc3)nc2c1 was 86.5

Reported inhibition ( N#Cc1ccc(-c2ccc(Cl)cc2)nc1SCC(=O)c1cccc(Cl)c1 ) = 25.2

Field inhibition (entry Cc1cccc(C)c1OCC(=O)Nn1c(=O)[nH]c2ccccc2c1=O ) reads 34.9

inhibition reading for CCCCNC1CCS(=O)(=O)C1 (stereo unspecified) : 37.9

inhibition reported for this compound O=C(Nc1nc(-c2ccncc2)cs1)c1ccc(S(=O)(=O)N2CCOCC2)cc1 : 39.9

Looking up CCOC(=O)n1c(=O)n(Cc2ccccc2)c2ccccc21 , I found its inhibition recorded as 47.1

The recorded inhibition for CC1=CC2=NC(=O)/C(=C\c3cccn3CCOc3cccc(C)c3)C(=N)N2O1 is 85.1

Lookup result for CCOc1c(Cl)cc(CNCC(C)C)cc1OC ; measured inhibition: 50

Value of inhibition reported for the compound COc1ccc(/C=N/NC(=O)c2csc(-n3nc(C)cc3C(F)(F)F)n2)cc1 is 36.5

###

Assay: ASC/caspase-1 reporter retest in S. cerevisiae at one dose, specificity check for NALP1 project (AID 488857)
Conditions: S. cerevisiae ASC/Caspase-1, beta-galactosidase luminescence, 24 h; at 10 µM; hits give high values
In all, about 1,400 compounds went through this assay and about 560 (40%) were called active. So high a share suggests a set chosen from earlier hits. This is one part of the list.
assayMetric: inhibition

# inhibition (compound: COc1cccc(F)c1C(C[N+](=O)[O-])c1c(N)n(C)c(=O)n(C)c1=O (stereo not given) ) is 97.7% (active)

Note to self: inhibition recorded for CCOc1ccc(C(=O)NC(=S)Nc2ccccc2N2CCCCC2)cc1[N+](=O)[O-] was 62.5% (active)

Value of measured inhibition for the entry Cc1ccc(C(C[N+](=O)[O-])c2c(N)n(C)c(=O)n(C)c2=O)cc1 (stereo not given) : 98.2% (active)

// inhibition lookup, compound = CCOC(=O)C(=O)C1=C(N2CCOCC2)/C(=C\c2ccc(F)cc2)CC1 , result: 36.2% (inactive)

Looking up CCN(CC)S(=O)(=O)c1ccc(NS(=O)(=O)c2cccs2)cc1 , I see its inhibition listed as 29.6% (inactive)

###

Experiment: ASC/caspase-1 reporter retest in S. cerevisiae at one dose, specificity check for NALP1 project (AID 488857)
Details: S. cerevisiae ASC/Caspase-1, beta-galactosidase luminescence, 24 h; at 10 µM
Screen size: about 1,400 compounds; about 560 (40%) were called active.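 The calls were made as follows: active = mean inhibition over duplicate tests at 10 µM above 50%; inactive = the rest.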 The set was probably picked from earlier hits. The list shows a part of the results.
Permitted responses: Y (active), N (inactive)

IN: Call for entry CC(=O)OCC(=O)[C@H]1CC[C@H]2[C@@H]3CC=C4C[C@@H](O)CC[C@]4(C)[C@H]3CC[C@]12C :
OUT: N

IN: Each compound tested received a call. Report the one for CN(C)S(=O)(=O)c1cccc2c1C(=O)c1ccccc1C2=O .
OUT: N

IN: What outcome does the record of this test show for COc1cc(/C=C2\SC(=Nc3ccc(F)cc3)N(c3ccc(F)cc3)C2=O)ccc1OCC(=O)O ?
OUT: N

IN: Could you check what this test reported for O=C1c2cccc(O)c2C(=O)c2c(O)cccc21 ?
OUT: Y

IN: Hi team, can someone confirm the assay call for CN(C=[N+](C)C)c1cccc2c1C(=O)c1ccccc1C2=O ?
OUT: N

IN: Would you mind telling me which call this test gave CC(=O)N1N=C(c2ccc3ccccc3c2)OC1(C)C ?
OUT: Y
